Please respond with reported growth for every item in the list.
# Test system: MALME-3M melanoma
# Assay Info: NCI-60 one-dose screen, 48 h (100 = growth as untreated, 0 = no growth, -100 = all killed)
# Run Conditions: 10 µM unless noted
The panel holds about 83,000 compounds, 20% with a hit somewhere; the sample as a whole holds those more often.
One number for each entry, in %.

Here is how some compounds turned out for growth.
C1=C\CCCCN2CC[C@H]3[C@H](CCCC/C=C\CCCN4C[C@@H](CCCCC/1)C[C@@H]3C4)C2 | 98.9
O=C(/C=C/c1ccccc1)C(Br)C(Br)c1ccccc1 (centres undefined) | -54.3
Clc1ccc2c(c1)-c1ccccc1C1=NCCN12 | 11.5
COc1cc(C2CC(c3ccc(Nc4ccnc5cc(Cl)ccc45)cc3)=NN2c2ccccc2)cc(OC)c1OC (centres undefined) | 45.6
c1ccc2c(Cc3csc4ccccc34)csc2c1 | 81.9

For every item in the list below, what is its measured growth?
1. CC1(C)C(N(O)C(=O)Nc2ccc(Cl)cc2)N(c2ccc(Cl)cc2)C(=O)N1CC(=O)N/N=C/C=C/c1ccc([N+](=O)[O-])o1 (centres undefined)
2. Oc1[nH]c2ccc(Cl)cc2c1/C=c1/ccc2c(c1)N=C(c1ccc(F)cc1)N=2

-42.6
-3.95

For every item in the list below, what is its measured growth?
1. COc1ccc(/C=C(/C(=O)N2CCN(c3ccccc3)CC2)c2cc(OC)c(OC)c(OC)c2)cc1N
2. COc1cc(C2CC(c3ccc(Cl)cc3)=NN2C=O)ccc1OS(=O)(=O)c1ccc(C)cc1 (centres undefined)

[66.3, 93.8]

====

# System: A498 renal
# Assay Info: NCI-60 one-dose screen, 48 h (100 = growth as untreated, 0 = no growth, -100 = all killed)
# Run Conditions: 10 µM unless noted
Compounds without any hit were thinned out: in the full panel of roughly 83,000, 20% have a hit.
Reported Metric: growth (%)
Give bare numbers, in %.

Here is how some molecules turned out for growth.
Cc1[nH]nc2ccc3nc(-c4ccc5[nH]ncc5c4)c4c(c3c12)CCCC4 | -10.8
CCCCCc1c(C)[nH]c(/C=C2\N=C(c3ccc[nH]3)C=C2CC)c1C | -90.8
O=C(/C=C/c1cn(-c2ccccc2)nc1-c1cccc(Nc2ccnc3cc(Cl)ccc23)c1)c1ccc2c(c1)OCO2 | 92.3

For every item in the list below, what is its measured growth?
1. CCc1ccc2c(c1)N(CCO)C1=C(C(=O)OC1)C2c1cccc(Br)c1 (stereo not given)
2. FC(F)(F)c1ccc(/C=N/Nc2nnc3n2N=C(c2ccc(Cl)cc2)CS3)cc1

[2.81, 69.9]

====

# System: U251 CNS
# Assay Info: NCI-60 one-dose screen, 48 h
# Run Conditions: 10 µM unless noted
The panel holds about 83,000 compounds, 20% with a hit somewhere; the sample as a whole holds those more often. The source made the active and inactive calls. The calls were made as follows: active = growth percent below 10; inactive = the rest.
Pick from label 1 for active, label 0 for inactive when you respond.

COCCOCCOCc1n(Cc2ccc3ccccc3n2)c2ccccc2[n+]1Cc1ccc2ccccc2c1 | label 0
OC(c1cc(-c2ccc(C(F)(F)F)cc2)nc(-c2ccc(C(F)(F)F)cc2)c1)C1CCCCN1 (stereo unspecified) | label 1
Cn1c(=O)c2c3c(oc2c2ccccc21)C(=O)c1ccccc1C3=O | label 0

For CC(C)c1[nH]ncc1-c1nc2ccc3[nH]ncc3c2c2c1CCCC2 , which call appears in the assay record?
label 0

Could you do the same for CC(C)CC(NC(=O)OCC1c2ccccc2-c2ccccc21)C(=O)O (stereo unspecified) , please?
label 0

Could you do the same for C/C(=N\NC(=S)Nc1ccccc1)c1ccccn1 , please?
label 0
